Target: human activated kallikrein enzyme (Homo sapiens, UniProt P03952)
Sequence (P03952 391-638 limits assumed): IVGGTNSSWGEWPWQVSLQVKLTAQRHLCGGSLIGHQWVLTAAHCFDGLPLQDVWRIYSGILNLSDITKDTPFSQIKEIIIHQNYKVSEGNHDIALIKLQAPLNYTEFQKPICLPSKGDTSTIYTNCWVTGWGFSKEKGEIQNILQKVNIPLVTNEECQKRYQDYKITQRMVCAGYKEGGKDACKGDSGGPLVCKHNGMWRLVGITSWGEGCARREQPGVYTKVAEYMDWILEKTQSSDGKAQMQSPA
Sequence (P03952 20-390 partner limits assumed): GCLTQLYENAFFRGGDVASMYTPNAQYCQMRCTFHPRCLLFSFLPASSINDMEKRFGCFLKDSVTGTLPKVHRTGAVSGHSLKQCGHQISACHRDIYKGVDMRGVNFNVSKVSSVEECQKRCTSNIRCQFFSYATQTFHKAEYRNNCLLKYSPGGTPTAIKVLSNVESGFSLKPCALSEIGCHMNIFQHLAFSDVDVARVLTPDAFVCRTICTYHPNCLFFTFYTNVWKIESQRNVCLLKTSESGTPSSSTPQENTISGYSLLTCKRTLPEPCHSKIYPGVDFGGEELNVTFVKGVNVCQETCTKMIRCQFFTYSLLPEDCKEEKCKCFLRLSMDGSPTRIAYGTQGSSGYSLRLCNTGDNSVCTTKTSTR
Test: Inhibition of activated plasma kallikrein, fluorogenic peptide substrate (PFR-AMC) assay, 500 pM enzyme format
Details: 500 pM activated kallikrein, 300 uM PFR-AMC, 30 min preincubation, 10 min reaction, room temperature; read-out: Primary Dose Response Assay: Average EC50
pEC50: −log10 of the molar value. Where a name gives a salt, the structure may show the parent alone.
Endpoint: pEC50

Completed entries (count: 2):
* Cc1ccnc([C@H]2C[C@@H]2c2ccc3cnc(NCc4cn5cc(C6CC6)cc(N6CC(=O)N(C)C6=O)c5n4)cc3n2)n1 (racemic) [Example 15, formic acid salt] | 8.00 to 9.00
* Cc1ccnc([C@H]2C[C@@H]2c2ccc3ccc(NCc4cn5cc(C6CC6)cc(N6C(=O)N(C)C(=O)C6C6(O)COC6)c5n4)cc3n2)n1 (relative stereo) | 8.00 to 9.00

Kindly consider the entry below.
Fill blank: measured pEC50 of the compound "Oc1cc([C@H]2C[C@@H]2c2cccc(Cl)c2)nc2cc(NCc3cn4cc(C5CC5)ccc4n3)ccc12" is ____.
8.00 to 9.00

---

Molecular target: human activated kallikrein enzyme (Homo sapiens, UniProt P03952)
Assay: Inhibition of activated plasma kallikrein, fluorogenic peptide substrate (PFR-AMC) assay, 500 pM enzyme format
Conditions: 500 pM activated kallikrein, 300 uM PFR-AMC, 30 min preincubation, 10 min reaction, room temperature; read-out: Primary Dose Response Assay: Average EC50
This section presents molecules with their documented EC50 values.

Completed entries (count: 2):
* Cc1ccnc([C@H]2C[C@@H]2c2ccc3ccc(NCc4cn5cc(C6CC6)cc(N6CC(=O)N(C7COC7)C6=O)c5n4)cc3n2)n1 (racemic) | ≤ 1 nM
* Cc1ccnc([C@H]2C[C@@H]2C2=NS(=O)(=O)c3ccc(NCc4cn5cc(C6CC6)ccc5n4)cc3N2C)n1 | 100 to 6500 nM

Kindly consider the entry below.
Fill blank: measured EC50 of the molecule COc1cc([C@H]2C[C@@H]2c2cccc(Cl)c2)nc2cc(NCc3cn4cc(C5CC5)ccc4n3)ccc12 (racemic) is ____.
10 to 100 nM

---

Target: human activated kallikrein enzyme (Homo sapiens, UniProt P03952)
Test: Inhibition of activated plasma kallikrein, fluorogenic peptide substrate (PFR-AMC) assay, 500 pM enzyme format
Details: 500 pM activated kallikrein, 300 uM PFR-AMC, 30 min preincubation, 10 min reaction, room temperature; read-out: Primary Dose Response Assay: Average EC50
This section presents molecules with their documented EC50 values.

• Cc1ccnc([C@H]2C[C@@H]2c2cc(O)c3cnc(NCc4cn5cc(C6CC6)cc(N6CC(=O)N(C)C6=O)c5n4)nc3n2)n1 (racemic) [Example 86] = ≤ 1 nM
• Cc1ccnc([C@H]2C[C@@H]2c2ccc3ncn(Cc4cn5cc(C6CC6)cc(N6CC(=O)N(C)C6=O)c5n4)c3n2)n1 (racemic) [Example 71] = > 6500 nM
• Cc1ccnc([C@H]2C[C@@H]2c2cc(=O)c3cnc(NCc4cn5cc(C6CC6)cc(N6CC(=O)N(C)C6=O)c5n4)cc3[nH]2)n1 (racemic) [Example 10] = ≤ 1 nM
• Cc1ccnc([C@H]2C[C@@H]2C2=CS(=O)(=O)c3cnc(NCc4cn5cc(C6CC6)cc(N6CC(=O)N(C)C6=O)c5n4)cc3N2)n1 (racemic) [Example 79] = ≤ 1 nM
• Cc1ccnc([C@H]2C[C@@H]2c2cc(NCC(C)(C)O)c3ccc(OCc4cn5cc(C6CC6)cc(N6CC(=O)N(C)C6=O)c5n4)cc3n2)n1 [Example 97] = ≤ 1 nM

Fill blank: measured EC50 of the molecule Cc1ccnc([C@H]2C[C@@H]2c2cc(OCCO)c3ccc(NCc4cn5cc(C6CC6)cc(N6CC(=O)N(C)C6=O)c5n4)cc3n2)n1 (racemic) [Example 69] is ____.
≤ 1 nM

Fill blank: measured EC50 of the molecule Cc1ccnc([C@H]2C[C@@H]2c2cc(N3CC4(COC4)C3)c3cnc(OCc4cn5cc(C6CC6)cc(N6CC(=O)N(C)C6=O)c5n4)cc3n2)n1 [Example 103] is ____.
≤ 1 nM

Fill blank: measured EC50 of the molecule Cc1ccnc([C@H]2C[C@@H]2C2=CS(=O)(=O)c3ccc(NCc4cn5cc(C6CC6)cc(N6CC(=O)N(C)C6=O)c5n4)cc3N2)n1 (racemic) [Example 61] is ____.
≤ 1 nM

Fill blank: measured EC50 of the molecule Cc1ccnc([C@H]2C[C@@H]2c2cc(C(C)(C)O)c3ccc(NCc4cn5cc(C6CC6)cc(N6CC(=O)N(C)C6=O)c5n4)cc3n2)n1 (racemic) [Example 95] is ____.
≤ 1 nM

Fill blank: measured EC50 of the molecule COc1cc([C@H]2C[C@@H]2c2cccc(Cl)c2)nc2cc(NCc3cn4cc(C5CC5)cc(N5CCCC5=O)c4n3)ccc12 (racemic) [Example 4] is ____.
10 to 100 nM

Fill blank: measured EC50 of the molecule COc1cc([C@H]2C[C@@H]2c2nccc(C)n2)nc2cc(NCc3cn4cc(C5CC5)ccc4n3)ccc12 (racemic) [Example 20] is ____.
1 to 10 nM

Fill blank: measured EC50 of the molecule Cc1ccnc([C@H]2C[C@@H]2c2cc(N3CC(O)C3)c3ccc(NCc4cn5cc(C6CC6)cc(N6CC(=O)N(C)C6=O)c5n4)cc3n2)n1 [Example 31] is ____.
≤ 1 nM
